These data points were gathered from PubChem BioAssay AID2060912.

tested on: HUVEC/MSC spheroids viability; assay: Human HUVEC/MSC cell line growth inhibition [KRAS2]; conditions: second compound 3 µM; first compound 0.1 µM; stronger effect = lower value;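 also: percent of DMSO vehicle control luminescence so 100% = untreated viability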
Reported viability, T/C by item:
Write the answer as a number in %, unit excluded.

Answered examples (2):
CC(C)NCC(C(=O)N1CCN(c2ncnc3c2C(C)CC3O)CC1)c1ccc(Cl)cc1 (stereo not drawn) + C=CC(=O)N1CCN(c2nc(OCC3CCCN3C)nc3c2CCN(c2cccc4cccc(C)c24)C3)CC1CC#N | 74.5
CN(C)C/C=C/C(=O)Nc1cc2c(Nc3ccc(F)c(Cl)c3)ncnc2cc1O[C@H]1CCOC1 + C=CC(=O)N1CCN(c2nc(OCC3CCCN3C)nc3c2CCN(c2cccc4cccc(C)c24)C3)CC1CC#N | 93.7

Okay, now this molecule:
Please report the recorded viability, T/C for COc1cc(Nc2ncc3c(n2)-c2ccc(Cl)cc2C(c2c(F)cccc2OC)=NC3)ccc1C(=O)O + C=CC(=O)N1CCN(c2nc(OCC3CCCN3C)nc3c2CCN(c2cccc4cccc(C)c24)C3)CC1CC#N .
88.5

---

system: HUVEC/MSC spheroids viability; test: Human HUVEC/MSC cell line growth inhibition [KRAS2]; conditions: second compound 0.1 µM; first compound 0.00316 µM; stronger effect = lower value;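 also: percent of DMSO vehicle control luminescence so 100% = untreated viability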
# key: entry, value: viability, T/C
Write down the numeric answer in % and omit the unit.

Can you look up the measured viability, T/C of Cn1ncnc1[C@H]1c2n[nH]c(=O)c3cc(F)cc(c23)N[C@@H]1c1ccc(F)cc1 + CNCc1ccccc1-c1csc(C(C)Nc2nc(C)nc3cc(OC)c(OC)cc23)c1 for me?
90.2

Entry under review: Cn1ncnc1[C@H]1c2n[nH]c(=O)c3cc(F)cc(c23)N[C@@H]1c1ccc(F)cc1 + COc1cc2nc(C)nc(NC(C)c3cc(N)cc(C(F)(F)F)c3)c2cc1OC1CCOC1 . Reported viability, T/C?
100

Requested field: viability, T/C. Item: CCN1CCN(Cc2ccc(Nc3ncc(F)c(-c4cc(F)c5nc(C)n(C(C)C)c5c4)n3)nc2)CC1 + COc1cc2nc(C)nc(NC(C)c3cc(N)cc(C(F)(F)F)c3)c2cc1OC1CCOC1
77.7

---

Consider the following molecules and their measured viability, T/C readings.
test system: HUVEC/MSC spheroids viability; test: Human HUVEC/MSC cell line growth inhibition [KRAS2]; details: second compound 0.316 µM; first compound 0.316 µM; stronger effect = lower value;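 also: percent of DMSO vehicle control luminescence so 100% = untreated viability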
The response must be a number in % with no trailing unit.

CCNC(=O)CC1N=C(c2ccc(Cl)cc2)c2cc(OC)ccc2-n2c(C)nnc21 (stereo not given) + CC1OCC2(CCN(c3cnc(Sc4ccnc(N)c4Cl)c(N)n3)CC2)C1N | 87.1

I'd like to know its viability, T/C. The molecule in question is COc1cc2nccc(Oc3ccc(NC(=O)C4(C(=O)Nc5ccc(F)cc5)CC4)cc3)c2cc1OC + CNCc1ccccc1-c1csc(C(C)Nc2nc(C)nc3cc(OC)c(OC)cc23)c1
72

Fill in the blank: the reported viability, T/C of COC(=O)c1ccc2c(C(=Nc3ccc(N(C)C(=O)CN4CCN(C)CC4)cc3)c3ccccc3)c(O)[nH]c2c1 + CNCc1ccccc1-c1csc(C(C)Nc2nc(C)nc3cc(OC)c(OC)cc23)c1 is ____.
90.9

What value of viability, T/C has been recorded for this entry: COc1cc2nccc(Oc3ccc(NC(=O)C4(C(=O)Nc5ccc(F)cc5)CC4)cc3)c2cc1OC + C=CC(=O)N1CCN(c2nc(=O)n(-c3c(C)ccnc3C(C)C)c3nc(-c4c(O)cccc4F)c(F)cc23)C(C)C1
96.6

What value of viability, T/C has been recorded for this entry: COC(=O)c1ccc2c(C(=Nc3ccc(N(C)C(=O)CN4CCN(C)CC4)cc3)c3ccccc3)c(O)[nH]c2c1 + COc1cc2nc(C)nc(NC(C)c3cc(N)cc(C(F)(F)F)c3)c2cc1OC1CCOC1
52.7
